- system_tested: SfurOBP11 (Sogatella furcifera, UniProt V5T6E3)
- Sequence (V5T6E3 entry or part of it): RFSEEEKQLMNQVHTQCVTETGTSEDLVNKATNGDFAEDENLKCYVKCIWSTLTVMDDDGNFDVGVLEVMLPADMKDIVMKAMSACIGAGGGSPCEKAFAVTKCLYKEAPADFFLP
- experimental_protocol: biochemical
- Type: binding
- experimental_setup: ligand concentration 20, replicate 1
Classification scheme (Fluorescence intensity, fluorescence competitive binding assay, OBP11): low range: < 20000; mid range: ≥ 20000 and < 30000; high range: ≥ 30000

Study these solved cases before continuing.
COC(=O)c1ccccc1	mid range
CCCCCCCCCCCCCCCC(=O)OC [MH(methyl hexadecanoate)]	high range
O=Cc1ccccc1	low range
CCCCCCCCCCCCCCCC	mid range
CCCCCCCCC=O	mid range
C=C/C(C)=C/C/C=C(\C)CCC=C(C)C	high range
CCCCCCCC=O	mid range
CC(=O)/C=C/C1=C(C)CCCC1(C)C	low range
CCCCCCCCCCCCCCCCCCC	high range
CC/C=C\CCO [(Z)-3-hexenol]	low range

input: Dear colleague, I would appreciate it if you could identify the bin for "CCCCCCCCCCCCO" and reply at your convenience.
output: mid range

input: Dear colleague, I would appreciate it if you could identify the bin for C=CC(C)(O)CCC=C(C)CCC=C(C)C (mixture of isomers) and reply at your convenience.
output: mid range

input: Dear colleague, I would appreciate it if you could identify the bin for "C[C@@H]1CC[C@H]2C(C)(C)[C@H]3C[C@@]12CC[C@@]3(C)O" and reply at your convenience.
output: high range

----------
- system_tested: SfurOBP11 (Sogatella furcifera)
- experimental_protocol: biochemical
- Assay type: binding
- experimental_setup: ligand concentration 6, replicate 2
property: Fluorescence intensity, fluorescence competitive binding assay, OBP11
Give bare numbers.

Worked examples follow.
c1ccc2ccccc2c1	33550
CCCCCCCCCCC	33682
CC(C)COC(=O)CCCCC(=O)OCC(C)C [DA(diisobutyl adipate)]	24895
CC1=CC[C@@H](C(C)(C)O)CC1	27021

Turning to the following compound.
input: Query: Fluorescence intensity, fluorescence competitive binding assay, OBP11; subject: "O=Cc1ccccc1"
output: 24263

----------
- system_tested: SfurOBP2 (Sogatella furcifera)
- experimental_protocol: biochemical
- Assay type: binding
- experimental_setup: ligand concentration 2 (unit not given), replicate column 1 of 3
The label True is reserved for Fluorescence competitive binding assay, OBP2 (raw fluorescence reading) strictly under 20000; False covers values equal to or above it.

Study these solved cases before continuing.
CCCCCCCCCCC	True
CCCCCCCCCCCCCCCCCCC	False
CCCCCCCCCCCCO	True
C/C(=C\CO)CCC[C@H](C)CCC[C@H](C)CCCC(C)C	True
CCCCCCCC	True

input: Hi there! Is Fluorescence competitive binding assay, OBP2 (raw fluorescence reading) for "C[C@@H]1CC[C@H]2C(C)(C)[C@H]3C[C@@]12CC[C@@]3(C)O" below 20000, do you know?
output: False

input: Hi there! Is Fluorescence competitive binding assay, OBP2 (raw fluorescence reading) for C=C(C)C1CC=C(C)CC1 (single isomer, unassigned; (+)) [(+)-limonene] below 20000, do you know?
output: True

input: Hi there! Is Fluorescence competitive binding assay, OBP2 (raw fluorescence reading) for "CCCCCCCCCCCCCCCCCC" below 20000, do you know?
output: False

input: Hi there! Is Fluorescence competitive binding assay, OBP2 (raw fluorescence reading) for "CC(=O)c1ccccc1" below 20000, do you know?
output: True

input: Hi there! Is Fluorescence competitive binding assay, OBP2 (raw fluorescence reading) for "CC(=O)/C=C/C1=C(C)CCCC1(C)C" below 20000, do you know?
output: False

input: Hi there! Is Fluorescence competitive binding assay, OBP2 (raw fluorescence reading) for "CCCCCCCCC=O" below 20000, do you know?
output: False

----------
- system_tested: SfurOBP11 (Sogatella furcifera, UniProt V5T6E3)
- experimental_protocol: biochemical
- Format: binding
- experimental_setup: ligand concentration 20, replicate 2
The label yes is reserved for Fluorescence intensity, fluorescence competitive binding assay, OBP11 strictly under 30000; no covers values equal to or above it.

Study these solved cases before continuing.
CCC/C=C/CO [(E)-2-hexenol]	yes
C=CC(C)(O)CCC=C(C)CCC=C(C)C (mixture of isomers)	yes

input: Hi there! Is Fluorescence intensity, fluorescence competitive binding assay, OBP11 for "CC(=O)c1ccccc1" below 30000, do you know?
output: yes

input: Hi there! Is Fluorescence intensity, fluorescence competitive binding assay, OBP11 for "CCCCCCCCC=O" below 30000, do you know?
output: yes

input: Hi there! Is Fluorescence intensity, fluorescence competitive binding assay, OBP11 for "C[C@@H]1CC[C@H]2C(C)(C)[C@H]3C[C@@]12CC[C@@]3(C)O" below 30000, do you know?
output: no

----------
- system_tested: SfurOBP2 (Sogatella furcifera, UniProt V5T759)
- Sequence (V5T759 entry or part of it): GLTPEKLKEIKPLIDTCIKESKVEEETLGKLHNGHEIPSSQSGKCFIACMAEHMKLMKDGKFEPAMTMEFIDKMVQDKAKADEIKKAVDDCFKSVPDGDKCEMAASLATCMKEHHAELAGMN
- experimental_protocol: biochemical
- Assay type: binding
- experimental_setup: ligand concentration 6 (unit not given), replicate column 3 of 3
property: Fluorescence competitive binding assay, OBP2 (raw fluorescence reading)
Numbers only.

Please report Fluorescence competitive binding assay, OBP2 (raw fluorescence reading) for every entry that follows.
1. CCCCCC(C)=O [2-heptanone]
2. Cc1cc(C(C)(C)C)c(O)c(C(C)(C)C)c1 [BHT(2,6-di-tert-butyl-4-methylphenol)]
3. CCCCCC=O [caproaldehyde]
4. CCCCCCCCCCCCC=O [tridecanal]
5. C=C/C(C)=C/C/C=C(\C)CCC=C(C)C [α-farnesene]
6. C/C(=C\CO)CCC[C@H](C)CCC[C@H](C)CCCC(C)C [plant alcohol]
7. C=CC(C)(O)CCC=C(C)CCC=C(C)C (mixture of isomers) [nerolidol]

output:
[19352, 15070, 21619, 18919, 19054, 16407, 15095]

----------
- system_tested: SfurOBP11 (Sogatella furcifera)
- experimental_protocol: biochemical
- Type: binding
- experimental_setup: ligand concentration 18, replicate 2
property: Fluorescence intensity, fluorescence competitive binding assay, OBP11
Answers are plain numbers.

C=C(C)C1CC=C(C)CC1 (single isomer, unassigned; (+)) [(+)-limonene]	18012
C=CC(C)(O)CCC=C(C)C (stereo not drawn)	30011
O=C(c1ccccc1)c1ccccc1	15453
CCCCCCCCCCC	34941
CCCCCCCCCCCCCCCCCCC	34140

Turning to the following molecule.
input: Query: Fluorescence intensity, fluorescence competitive binding assay, OBP11; subject: "CCCCCCCC"
output: 26281

----------
- system_tested: UniProt V5T759
- experimental_protocol: biochemical
- Format: binding
- experimental_setup: ligand concentration 20 (unit not given), replicate column 3 of 3
Could you please report measured Fluorescence competitive binding assay, OBP2 (raw fluorescence reading) for the items listed next?
Give bare numbers.

Worked examples follow.
COC(=O)c1ccccc1	13761
C=CC(C)(O)CCC=C(C)CCC=C(C)C (mixture of isomers)	11172
Cc1ccc(C(C)C)cc1	13093
O=C(c1ccccc1)c1ccccc1	11724

Turning to the following compound.
input: Query the reported Fluorescence competitive binding assay, OBP2 (raw fluorescence reading) for UniProt V5T759; item: "CCCCCCCCCCCCCCCC"
output: 11415

----------
Could you please report measured Fluorescence competitive binding assay, OBP2 (raw fluorescence reading) for the items listed next?
- system_tested: SfurOBP2 (Sogatella furcifera, UniProt V5T759)
- experimental_protocol: biochemical
- Type: binding
- experimental_setup: ligand concentration 14 (unit not given), replicate column 3 of 3
Numbers only.

Worked examples follow.
CC(=O)c1ccccc1	14905
Cc1ccc(C(C)C)cc1	13503

Please report Fluorescence competitive binding assay, OBP2 (raw fluorescence reading) for every entry that follows.
1. CC(=O)/C=C/C1=C(C)CCCC1(C)C
2. C=CC(C)(O)CCC=C(C)CCC=C(C)C (mixture of isomers)
3. COC(=O)c1ccccc1
4. CCCCCCCCCCCCO
5. CCCCCCC=CCO
6. CCCCCCCC=O

output:
1: 13962; 2: 12178; 3: 16066; 4: 14683; 5: 17641; 6: 15051

Please report Fluorescence competitive binding assay, OBP2 (raw fluorescence reading) for every entry that follows.
1. C=CC(C)(O)CCC=C(C)C (stereo not drawn)
2. C=C/C(C)=C/C/C=C(\C)CCC=C(C)C

output:
16080
18689

----------
Could you please report measured Fluorescence competitive binding assay, OBP2 (raw fluorescence reading) for the items listed next?
- system_tested: SfurOBP2 (Sogatella furcifera)
- experimental_protocol: biochemical
- Assay type: binding
- experimental_setup: ligand concentration 14 (unit not given), replicate column 1 of 3
Answers are plain numbers.

Worked examples follow.
CCCCCCCCCCCCCCCCCC [n-octadecane]	23028
CCCCCCCC [n-octane]	12907
O=Cc1ccccc1 [benzaldehyde]	12764
C/C(=C\CO)CCC[C@H](C)CCC[C@H](C)CCCC(C)C [plant alcohol]	20768

input: Query: Fluorescence competitive binding assay, OBP2 (raw fluorescence reading); subject: CCCCCCCCC=O [nonanal]
output: 18807

----------
- system_tested: SfurOBP2 (Sogatella furcifera, UniProt V5T759)
- experimental_protocol: biochemical
- Assay type: binding
- experimental_setup: ligand concentration 6 (unit not given), replicate column 2 of 3
- Experimental: Thirty-six rice odorants ([He et al., 2014]; [Wang et al., 2017]) and 1-N-phenyl-naphthylamine (1-NPN) were purchased from Sigma-Aldrich (St Louis, MO, USA). […] Fluorescence competitive binding assays were performed on Tecan Spark 10M (Tecan Group Ltd., Männedorf, Switzerland) with the F96 Black ELIAS Plate (Sangon) ([Khuhro et al., 2017]; [Liu et al., 2017]). The solutions were excited at 337 nm and emission spectra were recorded between 390 and 490 nm. […]
property: Fluorescence competitive binding assay, OBP2 (raw fluorescence reading)
Answers are plain numbers.

Please report Fluorescence competitive binding assay, OBP2 (raw fluorescence reading) for every entry that follows.
1. C=C/C(C)=C/C/C=C(\C)CCC=C(C)C
2. Cc1ccc(C(C)C)cc1
3. COC(=O)c1ccccc1
4. CC(C)COC(=O)CCCCC(=O)OCC(C)C [DA(diisobutyl adipate)]
5. CCCCCCCCCCOCCCCCCCCCC
6. C[C@@H]1CC[C@H]2C(C)(C)[C@H]3C[C@@]12CC[C@@]3(C)O
7. Cc1cc(C(C)(C)C)c(O)c(C(C)(C)C)c1

output:
[16570, 17348, 19598, 17472, 31794, 26969, 16983]

Please report Fluorescence competitive binding assay, OBP2 (raw fluorescence reading) for every entry that follows.
1. c1ccc2ccccc2c1
2. CCCCCCCCCCCCCCCCCC

output:
22417
20809
